Test system: SK-OV-3 ovarian
Experiment: NCI-60 one-dose screen, 48 h (100 = growth as untreated, 0 = no growth, -100 = all killed)
Conditions: 10 µM unless noted
About 83,000 compounds went through this panel and 20% of them were active in at least one assay; those are over-represented in the sample as a whole.
For each record, write down the corresponding growth.
Report as a plain number; the unit % is understood.

Query growth for "Cc1cc(C)cc(C(=O)Nc2cccc(C#Cc3cccc4[nH]nc(N)c34)c2)c1" 95.7

Query growth for "CCCCCCCn1cc2c(N[C@H](C)c3ccccc3)ncnc2n1" 117

Query growth for COC(=O)c1[nH]nc2c1C1(C(=O)c3cccc4cccc1c34)C(C#N)=C(N)O2 (stereo not given) 85.3

Query growth for CCNC(=O)N1CCc2cc(OC)c(OCCc3ccc(OC)cc3)cc2C1c1ccc([N+](=O)[O-])cc1C (stereo not given) 51.4

Query growth for O=C(NNc1nc2cc(F)c(F)cc2n2c(CN3CC4CNCC4C3)ccc12)c1cnccn1 (stereo not given) 13.3

----------
System: T-47D breast
Experiment: NCI-60 one-dose screen, 48 h (100 = growth as untreated, 0 = no growth, -100 = all killed)
Details: 10 µM unless noted
This is part of a sample that, as a whole, favours compounds with a hit. Of some 83,000 tested, about 20% had one in any assay.
So basically: growth at 60% or higher? That is TRUE. Lower than 60%? That is FALSE.

# bool: growth of "O=C(CCn1cc[n+](CC(=O)c2ccc(-c3ccccc3)cc2)c1)Nc1cccc2cccnc12" >= 60% FALSE

# bool: growth of "Cc1cc(C)n(C(=O)c2sc(=S)n(-c3ccccc3)c2N=Nc2c(N)n[nH]c2N)n1" >= 60% TRUE

# bool: growth of "CS(=O)(=O)Nc1cc(-c2ccc3ncc(C#N)c(Nc4cccc(Cl)c4F)c3c2)cnc1Cl" >= 60% FALSE

# bool: growth of "CCCCCc1ccc(S(=O)(=O)Nc2cccc(-c3csc(NC(=O)CCCCCN4CCN(C)CC4)n3)c2)cc1" >= 60% FALSE

# bool: growth of "COc1cc(-c2nc3sccn3c2-c2ccnc(S(C)(=O)=O)n2)ccc1F" >= 60% TRUE

# bool: growth of "CC1(C)[C@@H](O)CC[C@]2(C)[C@H]3CC[C@@H]4[C@H]5[C@H](C(=O)/C=C\c6ccncc6)CC[C@]5(O)CC[C@@]4(C)[C@]3(C)CC[C@@H]12" >= 60% TRUE

# bool: growth of CC(C)(C)n1nnnc1C(Nc1cccc2c1OCO2)c1cc2cccc3ccc4cccc1c4c32 (stereo not drawn) >= 60% TRUE

----------
Test system: CAKI-1 renal
Assay: NCI-60 one-dose screen, 48 h (100 = growth as untreated, 0 = no growth, -100 = all killed)
Conditions: 10 µM unless noted
This is part of a sample that, as a whole, favours compounds with a hit. Of some 83,000 tested, about 20% had one in any assay.
TEST READOUT: growth (%)
Report as a plain number; the unit % is understood.

Query growth for c1ccc(C(c2nc3ncncc3[nH]2)N2CSc3nc4ccccc4n3C2)cc1 (stereo not drawn) 89.5

Query growth for "COc1ccc(C(=O)CSc2nc3c(c(Nc4ccc(S(N)(=O)=O)cc4)n2)CCCC3)cc1" 70.9

Query growth for "CC1=NC2=NN3C(=NN2C(c2ccccc2)=C1)N=NC(c1ccc(Br)cc1)=C3c1ccc(Br)cc1" 95.7

Query growth for CC(C)(C)n1nnnc1C(Nc1cccc2c1OCO2)c1cc2cccc3ccc4cccc1c4c32 (stereo not drawn) 64.5

Query growth for CCCn1cnc2c(c1=N)C(c1ccc(F)cc1)c1sc3c(C)cccc3c1O2 (stereo not drawn) 28.6

Query growth for C=C1CC[C@@H]2[C@]3(C)COC(c4ccccc4)O[C@@H]3CC[C@@]2(C)[C@@H]1C/C=C1/C(=O)OC[C@H]1O (stereo partly drawn) 83.7

Query growth for COc1c(N2CC3CCCNC3C2)c(F)cc2c(=O)c(C(=O)N/N=C/c3c[nH]c4ccccc34)cn(C3CC3)c12 (stereo not drawn) 98.7

Query growth for "CC1(C)[C@@H](O)CC[C@]2(C)[C@H]3CC[C@@H]4[C@H]5[C@H](C(=O)/C=C\c6ccccn6)CC[C@]5(O)CC[C@@]4(C)[C@]3(C)CC[C@@H]12" 33.9

----------
Tested on: SN12C renal
Test: NCI-60 one-dose screen, 48 h
Conditions: 10 µM unless noted
The panel holds about 83,000 compounds, 20% with a hit somewhere; the sample as a whole holds those more often. The source made the active and inactive calls. How the source made its calls: active means growth percent below 10; inactive means the rest.
Hi! Could you answer with just one of these? active, inactive

Can you look up the reported call for "Cc1ccc(-c2nnc(SCc3ccc(O)c4ncccc34)o2)cc1" for me? inactive

Can you look up the reported call for "COc1cc2oc(-c3cccc(N)c3)cc(=O)c2c(OC)c1OC" for me? inactive

Can you look up the reported call for O=C1CC(=O)N2CSCN(C(c3ccccc3)c3nc4ncncc4[nH]3)C2=N1 (centres undefined) for me? inactive

Can you look up the reported call for COc1ccc(C2CC(c3cccc(Nc4nc(Cl)nc5cc(OC)c(OC)cc45)c3)=Nc3c(N)nc(N)nc3N2)cc1 (centres undefined) for me? inactive

Can you look up the reported call for "O=C(O)c1ccc(-n2cc(CNc3cccc(Cl)c3)c(-c3ccc(F)cc3)n2)cc1" for me? inactive

Can you look up the reported call for "CCOC(=O)c1c(Nc2ccccc2)nn2c(-c3cccs3)ccnc12" for me? inactive

Can you look up the reported call for "O=C1/C(=C/C=C/c2ccco2)SC(=S)N1c1ccccc1" for me? inactive

Can you look up the reported call for "COc1ccc(-c2nc3cccc(O)c3c(=O)n2Cc2ccccc2)cc1COc1ccc(NC(C)=O)cc1" for me? inactive

Can you look up the reported call for "COc1ccc([C@H]2c3[nH]c4ccccc4c3C[C@H]3C(=O)N(C4CCN(Cc5c(Cl)cccc5Cl)CC4)CC(=O)N23)c(OC)c1" for me? inactive

Can you look up the reported call for COC(=O)c1[nH]nc2c1C1(C(=O)N(C)c3ccccc31)C(C#N)=C(N)O2 (centres undefined) for me? inactive

Can you look up the reported call for "Cn1ccnc1C(=O)/C=C/c1ccc(NC(=O)c2c(F)c(F)c(F)c(F)c2F)cc1" for me? inactive

Can you look up the reported call for "Cc1nc(-c2ccccc2O)ccc1C(=O)N=Nc1c(O)[nH]c2ccc(Br)cc12" for me? inactive

Can you look up the reported call for CCc1cccc2c3c(sc12)C(c1ccc(Cl)cc1)C(C#N)=C(/N=C/c1ccc(Cl)cc1)O3 (centres undefined) for me? inactive

Can you look up the reported call for "CC(=O)c1ccc(Nc2nc(SCC(C)C)nc(-c3ccccc3)c2C#N)cc1" for me? inactive

Can you look up the reported call for "C=CCN(C)S(=O)(=O)/N=C1\NC(=O)NC1=C(Cl)Cl" for me? active

Can you look up the reported call for "COc1ccc(-c2nc3cc(Cl)c(Cl)cc3n2CC(=O)N=Nc2c(O)[nH]c3ccc(OC)cc23)cc1" for me? inactive

Can you look up the reported call for "O=S(=O)(NCCNc1nccc(-n2cnc3ccccc32)n1)c1ccc(Cl)cc1" for me? inactive

Can you look up the reported call for "C[C@@H](Nc1c(C#N)cnc2ccc(-c3cnc(Cl)c(NS(C)(=O)=O)c3)cc12)c1ccccc1" for me? active

Can you look up the reported call for "C=C(C=O)[C@@H]1CC[C@]2(C)[C@H](C(=O)C=C3[C@H]4C[C@](C)(C(=O)OC)CC[C@]4(C)CC[C@]32C)[C@@]1(C)CCC#N" for me? inactive

----------
Test system: A549/ATCC NSCLC
Test: NCI-60 one-dose screen, 48 h (100 = growth as untreated, 0 = no growth, -100 = all killed)
Details: 10 µM unless noted
This is part of a sample that, as a whole, favours compounds with a hit. Of some 83,000 tested, about 20% had one in any assay.
Category key, based on recorded growth: bottom = under 70%, middle = from 70% up to 90%, top = 90% and over

Tag the class for "Nc1nc(-c2cccc([N+](=O)[O-])c2)c(N=Nc2ccc(Br)cc2)s1" bottom

Tag the class for "CCCCCCCn1cc2c(N[C@H](C)c3ccccc3)ncnc2n1" top

Tag the class for "NC(N)=Nc1ccc(Oc2ccc(Nc3ccc(Cl)c(C(F)(F)F)c3)cc2)cc1" bottom

Tag the class for "Cc1ccc(-c2nn(-c3ccccc3)cc2/C=C/C(=O)c2ccc(NC(=O)CCCCCCC(=O)NO)cc2)cc1" middle

Tag the class for "O=C(NNc1nc2cc(F)ccc2n2c(CN3CCCC3)ccc12)c1cnccn1" bottom

Tag the class for "NC(=O)c1c(NC(=O)c2ccccc2C(F)(F)F)sc2c1CCC(=O)C2" top

Tag the class for "C#Cc1nc(C(=O)NCCC(=O)Nc2ccc(NC(=O)c3ccc(/C=C/C(=O)c4nccn4C)cc3)cc2)cs1" bottom

Tag the class for "CCn1c(SCC(=O)Nc2cccc(C(=O)/C=C/c3ccc(Br)cc3)c2)nc2ccccc2c1=O" middle

Tag the class for "Nc1ncc(-c2ccc3ncnc(N4CCc5cc(F)c(F)cc54)c3c2)cn1" bottom

Tag the class for "Cn1cc(-c2nnc(N)nc2-c2c[nH]c3ccc(F)cc23)c2cc(F)ccc21" middle

Tag the class for "COc1cc2oc(-c3cccc(NC(=O)c4cc(N)ccc4Cl)c3)cc(=O)c2c(OC)c1OC" top

Tag the class for "CCCCCc1ccc(S(=O)(=O)Nc2cccc(-c3csc(NCCN4CCN(C)CC4)n3)c2)cc1" middle

Tag the class for COC(=O)C(Cc1ccccc1)Nc1nc(NC(Cc2ccccc2)C(=O)OC)nc(N2CCOCC2)n1 (centres undefined) top

Tag the class for "CC(C)C[C@@H]1N[C@@]2(C(=O)Nc3ccccc32)[C@@H](c2ccc(F)cc2)[C@@H]1C(=O)c1ccc(O)cc1" middle

Tag the class for "Cc1ccc(-c2cc3nc(C(Cl)Cl)nc(C)n3n2)cc1" top

Tag the class for CCCn1cnc2c(c1=N)C(c1ccc(F)cc1)c1sc3c(CC)cccc3c1O2 (centres undefined) bottom

Tag the class for COC(=O)C1(C)CCC[C@]2(C)[C@H]3C[C@H]4C(C(C)C)=C[C@]3(CC[C@@H]12)[C@H]1[C@@H]4[C@@H](OC(=O)c2ccco2)CC[C@@H]1OC(=O)c1ccco1 (some centres undefined) top
